Cited source: ChEMBL document CHEMBL1201861

List of IC50 values.
Tested on: Ca-Ski;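 note: cell viability assay measuring inhibition of Ca-Ski cell growth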
Assay: cells
Assay type: functional, cell-based
Conditions: Homo sapiens
Description: SANGER: Inhibition of human Ca-Ski cell growth in a cell viability assay.

Here's what some known entries look like.
*Q* Could you share which IC50 value was measured for O=C(NCCCNc1nc(Nc2cccc(NC(=O)N3CCCC3)c2)ncc1I)c1cccs1 [BX-795] ?
*A* > 5 µM

*Q* Now the same for `O=C1NC(=O)c2c1c(-c1ccccc1Cl)cc1[nH]c3ccc(O)cc3c21`
*A* > 2 µM

*Q* Now the same for NC(=O)Nc1cc(-c2cccc(F)c2)sc1C(=O)N[C@H]1CCCNC1 [AZD-7762]
*A* 0.388 µM

*Q* Now the same for NC1(c2ccc(-c3nc4ccn5c(=O)[nH]nc5c4cc3-c3ccccc3)cc2)CCC1 [MK-2206]
*A* > 4 µM

*Q* Now the same for CC1(C)CCC(c2ccc(Cl)cc2)=C(CN2CCN(c3ccc(C(=O)NS(=O)(=O)c4ccc(N[C@H](CCN5CCOCC5)CSc5ccccc5)c(S(=O)(=O)C(F)(F)F)c4)cc3)CC2)C1 [NAVITOCLAX]
*A* > 2 µM

*Q* Now the same for `OC[C@H](Cc1ccccc1)Nc1nc(Oc2ccc3c(c2)CCC3)nc2c1ncn2Cc1ccc(-c2ccccc2)cc1`
*A* > 10.2 µM

---
*Q* Could you share which IC50 value was measured for C/C(=C\c1csc(C)n1)[C@@H]1C[C@@H]2O[C@]2(C)CCC[C@H](C)[C@H](O)[C@@H](C)C(=O)C(C)(C)[C@@H](O)CC(=O)O1 [PATUPILONE] ?
*A* 0.00385 µM

*Q* Now the same for CS(=O)(=O)N1CCN(Cc2cc3nc(-c4cccc5[nH]ncc45)nc(N4CCOCC4)c3s2)CC1 [PICTILISIB]
*A* > 4 µM

*Q* Now the same for `O=S(=O)(O)c1ccc2cc(/N=N/c3cc(S(=O)(=O)O)c4cccnc4c3O)ccc2c1`
*A* > 16 µM

*Q* Now the same for CN(C)CCOc1ccc(-c2nc(-c3ccncc3)c(-c3ccc4c(c3)CC/C4=N\O)[nH]2)cc1 [SB590885]
*A* > 5 µM
